Test: LAP4-GFP expression modulators in yeast, confirmation, cell-based, cherry picks, flow cytometry, mother/daughter gates (AID 2271);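 also: ratio of sample to DMSO plate mean so 100% equals DMSO level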
Conditions: S. cerevisiae LAP4-GFP strain, 3 h, measured here: mother cell gate response, at 10 µM, stronger effect = higher value, 100 means same as DMSO control
Reported GFP response relative to DMSO values follow for various compounds

[
  {
    "COMPOUND": "CCOc1ccc(N2C(=O)C(Cl)=C(Nc3ccccc3O)C2=O)cc1",
    "GFP response relative to DMSO": "105%"
  },
  {
    "COMPOUND": "O=S(=O)(c1ccccc1)N1N=C(c2cccs2)CC1c1ccc(Br)cc1 (stereo not given)",
    "GFP response relative to DMSO": "97.2%"
  },
  {
    "COMPOUND": "CCN(CC(O)Cn1c2ccccc2c2ccccc21)S(=O)(=O)c1ccc(F)cc1 (stereo not given)",
    "GFP response relative to DMSO": "108%"
  },
  {
    "COMPOUND": "Cc1nnc(NC(=O)c2nc(S(=O)(=O)Cc3ccccc3)ncc2Cl)s1",
    "GFP response relative to DMSO": "98.4%"
  },
  {
    "COMPOUND": "CC(=O)NC1(C(F)(F)F)C(=O)Nc2c1c(=O)[nH]c(=O)n2CCc1ccccc1 (stereo not given)",
    "GFP response relative to DMSO": "97.3%"
  },
  {
    "COMPOUND": "O=[N+]([O-])c1cnc(Sc2ccncn2)s1",
    "GFP response relative to DMSO": "182%"
  },
  {
    "COMPOUND": "Cc1cccc(OCCN2CSC(=S)N(C)C2)c1",
    "GFP response relative to DMSO": "167%"
  },
  {
    "COMPOUND": "N#C/C(=C\\c1c(N2CCN(c3ccccc3)CC2)nc2ccccn2c1=O)C(N)=O",
    "GFP response relative to DMSO": "98.4%"
  }
]

Item: CCCCN(CCCC)S(=O)(=O)c1ccc(C(=O)Nc2nnc(COC)o2)cc1 | GFP response relative to DMSO: 126%

Item: CN(c1ccccc1)S(=O)(=O)c1ccc(C(=O)Nc2nnc(-c3ccc(F)cc3)o2)cc1 | GFP response relative to DMSO: 120%

* * *

Test: AGP1-GFP expression modulators, hit retest, confirmation, cell-based, flow cytometry, S. cerevisiae, cherry picks (AID 2273);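 also: median GFP channel fluorescence over the whole cell population gate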
Settings: S. cerevisiae AGP1-GFP strain, 3 h, at 10 µM
Reported GFP response, % of DMSO values follow for various molecules
Numbers only here, please. The scale is %.

[
  {
    "MOLECULE": "COc1ccc(OC(=O)c2cccc(S(=O)(=O)N3CCCC3)c2)cc1",
    "GFP response, % of DMSO (%)": 96.4
  }
]

# context switch: different molecule, same GFP response, % of DMSO
Item: COc1ccc(S(=O)(=O)N2CCC(O)(c3ccc(Cl)cc3)CC2)cc1 | GFP response, % of DMSO: 91.9

* * *

Reported GFP response vs DMSO values follow for various compounds
Test: modulators of LAP4-GFP expression in yeast, primary screen, S. cerevisiae, multiplex flow cytometry (AID 1873)
Details: 3 h, at 10 µM, stronger effect = higher value
Inconclusive results are not listed.
Numbers only here, please. The scale is %.

Previously resolved entries follow.
[
  {
    "COMPOUND": "COc1cc2c(cc1OC)C(Cc1ccc(O)cc1)N(C)CC2 (stereo not given)",
    "DISPLAY UNIT": "%",
    "VAL": 80.9
  },
  {
    "COMPOUND": "CC(C)CCOCC(=O)Nc1cccc(C(=O)O)c1",
    "DISPLAY UNIT": "%",
    "VAL": 95.4
  },
  {
    "COMPOUND": "O=C1OC(c2ccc(O)cc2)(c2ccc(O)cc2)c2ccccc21",
    "DISPLAY UNIT": "%",
    "VAL": 103
  },
  {
    "COMPOUND": "CC(=O)OCC(=O)[C@@]12OC(C)(C)O[C@@H]1C[C@H]1[C@@H]3C[C@H](F)C4=CC(=O)C=C[C@]4(C)[C@@]3(F)[C@@H](O)C[C@@]12C",
    "DISPLAY UNIT": "%",
    "VAL": 100
  }
]

# context switch: different compound, same GFP response vs DMSO
Item: COc1cc2c(cc1OC)C(c1cc3ccccc3oc1=O)=NC(C)(C)C2 | GFP response vs DMSO: 96.4
